Source listed as the RepoRT retention time repository.

- assay.text: Agilent ZORBAX 300 SB-C18, 150 × 1 mm, 3.5 µm; A: water + 0.01% heptafluorobutyric acid; B: acetonitrile + 0.01% heptafluorobutyric acid; gradient (min/%B) 0/0 100/90
- condition.info: stereoisomer not certain
measured.property: LC retention time (min)

Examples with answers:
>>> obs_value("CCOC(=O)C(N)CCCN=C(N)N (centres undefined)")
7.25
>>> obs_value("CCCCCCCCCCOc1ccc(C(=O)NCCN2Cc3ccccc3C2=O)cc1")
20.2
>>> obs_value("CCOC(=O)C1C(C)=NC(=O)NC1C (centres undefined)")
8.75
>>> obs_value("CCCOC(=O)CCNc1n[nH]c(=O)[nH]c1=O")
8.44
>>> obs_value("CCNc1cccc(C)c1")
8.38

(A) CC1Cc2ccccc2N1C(=O)CN1CCN(C)CC1 (centres undefined)
(B) Cn1c(=O)[nH]cc(CC(=O)O)c1=O
(C) C[N+](C)(C)CCOP(=O)(O)OP(=O)(O)OCC1OC(n2ccc(N)nc2=O)C(O)C1O (centres undefined)
(D) O=C(NCCCc1ccccc1)c1ccccc1O
Highest LC retention time first, then in falling order down to the smallest. Provide your answer as the labels ordered per the instruction. D, A, B, C
(D: 15.3 min, A: 8.74 min, B: 5.4 min, C: 1.63 min)

* * *

- assay.text: Agilent ZORBAX 300 SB-C18, 150 × 1 mm, 3.5 µm; A: water + 0.01% heptafluorobutyric acid; B: acetonitrile + 0.01% heptafluorobutyric acid; gradient (min/%B) 0/0 100/90
- condition.info: stereoisomer not certain
measured.property: LC retention time (min)

(1) CC(C)CNc1c(N)c(=O)oc2ccccc12
(2) c1cncc(-c2nnco2)c1
(3) CCOc1ccc(C=CC(=O)c2ccc(C)cc2)cc1
Please give the order of these compounds when sorted by LC retention time, largest value leading. Write the labels out in the order the request specifies. 3, 1, 2
(3: 17.8 min, 1: 11.9 min, 2: 6.78 min)

* * *

- assay.text: Agilent ZORBAX 300 SB-C18, 150 × 1 mm, 3.5 µm; A: water + 0.01% heptafluorobutyric acid; B: acetonitrile + 0.01% heptafluorobutyric acid; gradient (min/%B) 0/0 100/90
- condition.info: stereoisomer not certain
measured.property: LC retention time (min)

Below are worked cases with known answers.
>>> obs_value("CN1CCc2cccc3c2C1Cc1ccc(O)c(O)c1-3 (centres undefined)")
8.8
>>> obs_value("CCOC(=O)c1c(C)n(C2CCCCC2)c2ccc(OC(C)=O)cc12")
17.8

(1) O=C(Cc1ccccc1)Nc1ccc(-c2nc(-c3ccccc3)c3cc(NC(=O)Cc4ccccc4)ccc3n2)cc1
(2) Cc1cc(N)cc(C)c1O
Please indicate which entry, 1 or 2 , has the lower recorded LC retention time value. Indicate which entry you chose by stating its label. 2
(2: 6.91 min, 1: 17.8 min)

* * *

- assay.text: Agilent ZORBAX 300 SB-C18, 150 × 1 mm, 3.5 µm; A: water + 0.01% heptafluorobutyric acid; B: acetonitrile + 0.01% heptafluorobutyric acid; gradient (min/%B) 0/0 100/90
- condition.info: stereoisomer not certain
measured.property: LC retention time (min)

>>> obs_value("C[N+]1(CC=C2COCO2)CCCCC1")
7.48

(1) CC(N)CCCC(C)(C)O (stereo not drawn)
(2) C[N+](C)(C)CC(=O)O
Compare the recorded LC retention time of 1 and 2 ; state which is larger. Selection: enter the item's label. 1
(1: 7.64 min, 2: 1.67 min)

* * *

- assay.text: Agilent ZORBAX 300 SB-C18, 150 × 1 mm, 3.5 µm; A: water + 0.01% heptafluorobutyric acid; B: acetonitrile + 0.01% heptafluorobutyric acid; gradient (min/%B) 0/0 100/90
- condition.info: stereoisomer not certain
measured.property: LC retention time (min)

Worked examples follow.
>>> obs_value("CCCN1CCCC(C(N)=O)C1 (centres undefined)")
6.49
>>> obs_value("CC(C)NCCN(CCNC(C)C)CCNC(C)C")
7.84
>>> obs_value("COC(=O)c1ccc2ccccc2n1")
10.4
>>> obs_value("CCNC(=O)CC(=O)NCC")
5.95
>>> obs_value("Cc1ccc(Nc2cc(=O)oc3ccccc23)cc1C")
14.2
>>> obs_value("O=C(O)CCc1nn2c3ccccc3n(CC(=O)O)c2nc1=O")
7.51
>>> obs_value("Nc1ccc(NC(=O)Nc2ccc(N)cc2)cc1")
7.24

(a) O=C(NCCCCc1ccccc1)C(=O)NCc1ccco1
(b) NCCCn1ccnc1
Hello, I am sorting some records. Could you say if a or b has the smaller LC retention time value? Select an item and report its label. b
(b: 6.66 min, a: 14.3 min)

* * *

- assay.text: Agilent ZORBAX 300 SB-C18, 150 × 1 mm, 3.5 µm; A: water + 0.01% heptafluorobutyric acid; B: acetonitrile + 0.01% heptafluorobutyric acid; gradient (min/%B) 0/0 100/90
- condition.info: stereoisomer not certain
measured.property: LC retention time (min)

>>> obs_value("O=C(Nc1cccc(C2=NCCN2)c1)Nc1cccc(C2=NCCN2)c1")
7.98
>>> obs_value("NC(=O)NC1CCCCC1")
7.79
>>> obs_value("CCC(=O)Nc1ccc(NCC(=O)Nc2ccc(C)cc2C)cc1")
11.1
>>> obs_value("CNC(C)C(O)c1ccccc1 (stereo unspecified)")
8.37
>>> obs_value("CCc1ccc(NCCC(=O)c2ccc(C(C)(C)C)cc2)cc1")
16.5
>>> obs_value("NC(=O)c1ccccc1NC(=O)c1cc2c(n(-c3ccccc3)c1=O)CCCC2=O")
10.5
>>> obs_value("Cc1nn(CC(=O)NCc2ccccn2)c(=O)c2ccccc12")
8.37
>>> obs_value("COC(=O)C(N)CO (stereo unspecified)")
4
>>> obs_value("Cc1cc(=O)n(-c2ccc(C(=O)O)cc2)[nH]1")
8.05
>>> obs_value("CCCCCCCCCCNCCCCCCCCCC")
17.8

(I) Nc1ncnc2[nH]ncc12
(II) Cc1cc[n+](CCc2ccccc2)cc1C
(III) NC(=O)NCc1ccccn1
(IV) O=C(Oc1cccc2cccnc12)c1ccccc1
(V) CCCCCC(=O)OC1(C(C)=O)CCC2C3CCC4=CC(=O)CCC4(C)C3CCC21C (stereo unspecified)
List from greatest to least LC retention time. # answer = labels listed in requested order V, IV, II, I, III

(A) CC(=O)Nc1nc(=S)n(-c2ccccc2)[nH]1
(B) Nc1ncc2[nH]cnc2n1
For the pair A and B , which member has the lower LC retention time number? Mark your selection by writing its label. B
(B: 5.52 min, A: 9.02 min)

(P) CC1(C)CC(NC(=O)C(=O)NC2CC(C)(C)NC(C)(C)C2)CC(C)(C)N1
(Q) O=C(c1n[nH]c(=O)c2ccccc12)N1CCN(C(c2ccccc2)c2ccccc2)CC1
Pick one: P or Q . Which has the bigger LC retention time number? Please identify the chosen entry by its label. Q

* * *

- assay.text: Agilent ZORBAX 300 SB-C18, 150 × 1 mm, 3.5 µm; A: water + 0.01% heptafluorobutyric acid; B: acetonitrile + 0.01% heptafluorobutyric acid; gradient (min/%B) 0/0 100/90
- condition.info: stereoisomer not certain
measured.property: LC retention time (min)

Below, 3 compounds whose answers are already recorded.
>>> obs_value("c1ccc(CN2CCN(Cc3ccccc3)C2c2cccs2)cc1")
11
>>> obs_value("O=c1[nH]c2ccccc2n1CCOc1ccccc1")
12.2
>>> obs_value("CC1(C)CC(N)CC(C)(CN)C1 (stereo not given)")
7.39

(A) CCn1c2ccccc2c2cc(C(=O)O)ccc21
(B) Nc1nc(N)nc(Cc2ccccc2)n1
Returns the identifier with the smallest measured LC retention time among A and B . The response must carry the label of the picked entry. B
(B: 7.96 min, A: 13.5 min)

* * *

- assay.text: Agilent ZORBAX 300 SB-C18, 150 × 1 mm, 3.5 µm; A: water + 0.01% heptafluorobutyric acid; B: acetonitrile + 0.01% heptafluorobutyric acid; gradient (min/%B) 0/0 100/90
- condition.info: stereoisomer not certain
measured.property: LC retention time (min)

Solved entries (count: 5):
>>> obs_value("c1ccc2nc3c(nc2c1)[nH]c1ccccc13")
12
>>> obs_value("CN1C(=O)C(CC(=O)NC2CCCCC2)N(C)C1=O (configuration not stated)")
8.55
>>> obs_value("O=C(NCc1n[nH]c(=O)c2ccccc12)C(=Cc1ccco1)NC(=O)c1ccco1")
9.12
>>> obs_value("Cc1ccc(CSc2ncccn2)c(CSc2ncccn2)c1C")
16
>>> obs_value("O=C(O)CCC(=O)Nc1ccc2c(c1)CCCC2")
11.2

(P) NCCCCCCCCCCCCN
(Q) Cc1cc(C)c2c(=O)n(CC(=O)NC(C)CCc3ccccc3)c(=O)n(-c3ccccc3)c2n1 (configuration not stated)
(R) O=C(O)c1ccncn1
Exam item: list the entries in increasing order of LC retention time. # output: labels, in the requested order R, P, Q
(R: 2 min, P: 8.26 min, Q: 15.7 min)

(I) CCC(C)N1CNc2c(c(=O)[nH]c(=O)n2Cc2ccccc2)C1 (configuration not stated)
(II) Cc1ccc(C)n1-c1ccccc1CO
Just curious, which one has the larger LC retention time reading, I or II ? Identify your pick by its label. II
